# pIC50 listing for each entry below
ASSAYED SYSTEM: Btk (Homo sapiens)
Construct: purified from insect cells as a full-length construct containing a N-terminal 6X-His tag; His6 (N); made in house; host or cells: insect cells (Method C)
Sequence (Q06187 whole entry): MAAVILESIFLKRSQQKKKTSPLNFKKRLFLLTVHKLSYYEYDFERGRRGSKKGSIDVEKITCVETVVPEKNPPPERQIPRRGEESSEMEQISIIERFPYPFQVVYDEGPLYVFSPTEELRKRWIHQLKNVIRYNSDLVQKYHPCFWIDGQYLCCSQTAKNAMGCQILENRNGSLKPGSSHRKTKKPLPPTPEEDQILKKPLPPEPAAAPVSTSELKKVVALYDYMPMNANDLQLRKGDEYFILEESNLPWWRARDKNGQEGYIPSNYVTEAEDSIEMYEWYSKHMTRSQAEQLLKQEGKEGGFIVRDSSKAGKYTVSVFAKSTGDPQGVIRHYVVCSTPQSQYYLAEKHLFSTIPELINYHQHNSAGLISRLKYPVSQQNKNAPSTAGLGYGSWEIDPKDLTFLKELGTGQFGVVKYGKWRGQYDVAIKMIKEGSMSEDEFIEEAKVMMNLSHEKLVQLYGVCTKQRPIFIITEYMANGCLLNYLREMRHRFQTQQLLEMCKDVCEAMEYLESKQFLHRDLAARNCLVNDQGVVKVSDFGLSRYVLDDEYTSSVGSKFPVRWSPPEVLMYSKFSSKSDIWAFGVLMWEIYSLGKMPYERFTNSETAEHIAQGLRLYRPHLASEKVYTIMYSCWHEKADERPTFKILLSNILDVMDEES
MEASUREMENT NOTES: Btk in vitro inhibitory activity (one of Method A TR-FRET, Method B electrophoretic mobility shift, Method C radiometric filter binding)
Format: biochemical
EXPERIMENTAL CONDITIONS: wild-type Btk; read-out: Btk-WT IC50
pIC50: −log10 of the molar value.
MEASURED QUANTITY: pIC50

>>> print(df.to_string())
                                   molecule  measured_quantity  recorded_result
0  CC(C)(C)c1nc(C(=O)NCc2ccc(-c3ccnc4[nH]nc(N5CCC[C@H](C(=O)O)C5)c34)cc2F)no1 [Example 252]              pIC50             9.29
1  C[C@@H](NC(=O)c1noc(C(C)(C)C)n1)c1ccc(-c2ccnc3[nH]nc(N[C@@H]4CCNC4)c23)cc1 [Example 73]              pIC50             7.42
2  C=CC(=O)N1CC[C@@H](Nc2n[nH]c3nccc(-c4ccc(CNC(=O)c5cnn(C(C)(C)C)c5)c(F)c4)c23)C1 [Example 80]              pIC50             9.89
3  C=CC(=O)N[C@H]1CC[C@@H](Nc2n[nH]c3nccc(-c4ccc(CNC(=O)c5noc(C(C)(C)C)n5)c(F)c4)c23)CC1 [Example 154]              pIC50             9.63
4  C[C@@H](NC(=O)c1nc(C(C)(C)C)no1)c1ccc(-c2ccnc3[nH]nc(C4=CCCN(C(=O)N(C)C)C4)c23)cc1 [Example 243]              pIC50             8.36
5  CN(C)C(=O)N1CC[C@@H](Nc2n[nH]c3nccc(-c4ccc(C5(NC(=O)c6nc(C(C)(C)C)no6)CC5)cc4)c23)C1 [Example 117]              pIC50             7.34
6  CC(C)(C#N)c1cc(C(=O)NCc2ccc(-c3ccnc4[nH]nc(N5CC[C@@H](N)C5)c34)cc2F)no1 [Example 401]              pIC50             7.47

* * *

Reported pIC50 values for the following compounds.
ASSAYED SYSTEM: Btk (Homo sapiens)
Construct: purified from insect cells as a full-length construct containing a N-terminal 6X-His tag; His6 (N); made in house; host or cells: insect cells (Method C)
MEASUREMENT NOTES: Btk in vitro inhibitory activity (one of Method A TR-FRET, Method B electrophoretic mobility shift, Method C radiometric filter binding)
Assay type: biochemical
EXPERIMENTAL CONDITIONS: wild-type Btk; read-out: Btk-WT IC50
pIC50: −log10 of the molar value.
MEASURED QUANTITY: pIC50

                           smiles_structure  recorded_result
0  C=CC(=O)N1CC[C@@H](Nc2n[nH]c3nccc(-c4ccc(CNC(=O)c5nc(C(C)(C)C)no5)c(F)c4)c23)C1            10.25
1  CC(=O)N[C@@H]1CCN(c2n[nH]c3nccc(-c4ccc(CNC(=O)c5coc(C(C)C)n5)c(F)c4)c23)C1             7.84
2  CC#CC(=O)N1CC[C@@H](Nc2n[nH]c3nccc(-c4ccc(CNC(=O)c5noc(C(C)(C)C)n5)c(F)c4)c23)C1             9.86
3  C=CC(=O)N[C@H]1CC[C@@H](Nc2n[nH]c3nccc(-c4ccc(CNC(=O)c5noc(C(C)(C)C)n5)c(F)c4)c23)C1            10.20
4  C[C@H](NC(=O)c1noc(C(C)(C)C)n1)c1ccc(-c2ccnc3[nH]nc(N[C@@H]4CCNC4)c23)cc1F             7.09
5  CN(C)C(=O)N1CC[C@@H](Nc2n[nH]c3nccc(-c4ccc(CNC(=O)c5cnn(C(C)(C)C)c5)c(F)c4)c23)C1             7.31
